# target: T1, hu-MCSP(D3 domain)-avi-his (human, UniProt Q6UVK1 1582-2224, biotinylated where used for selection or for coupling to the SA chip)
# T1 construct: also called human MCSP(D3 domain)-avi-his; human MCSP D3
# T1 sequence: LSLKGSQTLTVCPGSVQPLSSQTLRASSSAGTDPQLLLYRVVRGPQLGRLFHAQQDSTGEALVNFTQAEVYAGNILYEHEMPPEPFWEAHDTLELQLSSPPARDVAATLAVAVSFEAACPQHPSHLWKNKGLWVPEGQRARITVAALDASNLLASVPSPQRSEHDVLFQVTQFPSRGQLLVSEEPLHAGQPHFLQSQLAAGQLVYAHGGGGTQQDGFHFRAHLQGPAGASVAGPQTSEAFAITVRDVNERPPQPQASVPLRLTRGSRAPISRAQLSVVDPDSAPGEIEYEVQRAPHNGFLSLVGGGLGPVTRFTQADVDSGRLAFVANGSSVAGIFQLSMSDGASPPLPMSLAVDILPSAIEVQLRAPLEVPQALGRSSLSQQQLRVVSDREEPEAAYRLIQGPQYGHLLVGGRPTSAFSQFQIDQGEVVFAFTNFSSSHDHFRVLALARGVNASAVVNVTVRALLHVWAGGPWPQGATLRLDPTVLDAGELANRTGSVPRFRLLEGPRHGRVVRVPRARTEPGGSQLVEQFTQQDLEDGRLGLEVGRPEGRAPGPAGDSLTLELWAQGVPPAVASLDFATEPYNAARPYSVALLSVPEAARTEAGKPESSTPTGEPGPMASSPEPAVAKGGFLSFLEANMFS
# measurement-protocol: SPR (ProteOn XPR36), IgG KD against parental M4-3/ML2
Assign Comparative binding affinity - Fold increase over parent to each entry below.
Write the answer as a number in fold, unit excluded.

Task: What measured Comparative binding affinity - Fold increase over parent goes with M4-3(B7)/ML2 (IgG) (antibody, V domains shown, Human IgG1 format) VH: QVQLQESGPGLVKPSQTLSLTCTVSGGSITSGYYWNWIRQHPGKGLEWIGYITFDGINNYNPSLKSRVTISRDTSKNQFSLKLSSVTAADTAVYYCADFDYWGQGTLVTVSS VL: DIQMTQSPSSLSASVGDRVTITCRASQGIRNYLNWYQQKPGKAPKLLIYYTSSLHSGVPSRFSGSGSGTDFTLTISSLQPEDFATYYCQQYSKLPWTFGQGTKVEIK ?
Result: 4

Task: What measured Comparative binding affinity - Fold increase over parent goes with M4-3(A7)/ML2(C5) (IgG) (antibody, V domains shown, Human IgG1 format) VH: QVQLQESGPGLVKPSQTLSLTCTVSGGSITDGYYWNWIRQHPGKGLEWIGYITFDGRNNYNPSLKSRVTISRDTSKNQFSLKLSSVTAADTAVYYCADFDYWGQGTLVTVSS VL: DIQMTQSPSSLSASVGDRVTITCRASRGIREYLNWYQQKPGKAPKLLIYYTGSLHSGVPSRFSGSGSGTDFTLTISSLQPEDFATYYCQQYSELPWTFGQGTKVEIK ?
Result: 28.6

Data provenance: patent US20180086849A1
